Origin of measurements: patent US8906904B2

assay: Assessment of solubility (McIlvaine buffers, 24 h shake, UPLC-UV); assay type: physicochemical; conditions: pH 4.5, aqueous buffer, kinetic from dmso stock
ASSAY_READOUT: solubility at 24 h (µg/mL)

Solved cases (6 shown):
[[record]]
compound = "COc1c(C(=O)O)cnn1-c1cccc(-c2cccc(C)c2OCc2cc(C)c3c(c2)CCN(CC2(C)COC2)C3)n1 [Compound 239]"
measurement_unit = "µg/mL"
readout_value = 71

[[record]]
compound = "COc1c(C(=O)O)cnn1-c1cccc(-c2cccc(C)c2OCc2cc(C)c3c(c2)CCN(CC2COCCO2)C3)n1 (centres unmarked) [Compound 240]"
measurement_unit = "µg/mL"
readout_value = 69

[[record]]
compound = "COc1c(C(=O)O)cnn1-c1cccc(-c2cccc(C)c2OCc2cc(F)c3c(c2)CCN(C2CCOCC2)C3)n1 [Compound 201]"
measurement_unit = "µg/mL"
readout_value = 68

[[record]]
compound = "COc1c(C(=O)O)cnn1-c1cccc(-c2cccc(C)c2OCc2ccc3c(c2Cl)CCN(C2COC2)C3)n1 [Compound 17]"
measurement_unit = "µg/mL"
readout_value = 62

[[record]]
compound = "COc1c(C(=O)O)cnn1-c1cccc(-c2cccc(C)c2OCc2cc(C)c3c(c2C)CCN(C2COC2)C3)n1 [Compound 178]"
measurement_unit = "µg/mL"
readout_value = 72

[[record]]
compound = "CCOc1c(C(=O)O)cnn1-c1cccc(-c2cccc(C)c2OCc2ccc3c(c2)CCN(C(C)CS(C)(=O)=O)C3)n1 (centres unmarked) [Compound 70]"
measurement_unit = "µg/mL"
readout_value = 57


(a) CCOc1c(C(=O)O)cnn1-c1cccc(-c2cccc(C)c2OCc2ccc3c(c2)CCN(C2CCOC2)C3)n1 (centres unmarked) [Compound 35]
(b) COc1c(C(=O)O)cnn1-c1cccc(-c2cc(C)ccc2OCc2ccc3c(c2C)CCN(C2CCOCC2)C3)n1 [Compound 124]
I'm curious whether a or b has the smaller solubility at 24 h number. Which is it? In your reply, give the label of the chosen option.
b
(b: 8.6 µg/mL, a: 73 µg/mL)

----------
assay: Assessment of solubility (McIlvaine buffers, 24 h shake, UPLC-UV); format: physicochemical; details: pH 4.5, aqueous buffer, kinetic from dmso stock
ASSAY_READOUT: solubility at 24 h (µg/mL)

[[record]]
molecule = "CCOc1c(C(=O)O)cnn1-c1cccc(-c2cccc(Cl)c2OCc2ccc3c(c2)CCN(C2CCOCC2)C3)n1"
measurement_unit = "µg/mL"
readout_value = 78

[[record]]
molecule = "COc1c(C(=O)O)cnn1-c1cccc(-c2cccc(C)c2OCc2ccc3c(c2)CCN([C@H]2CC[C@@]4(CCCO4)CC2)C3)n1"
measurement_unit = "µg/mL"
readout_value = 78

[[record]]
molecule = "COc1c(C(=O)O)cnn1-c1cccc(-c2cccc(C)c2OCc2ccc3c(c2)CCN(CC2CC(F)(F)C2)C3)n1"
measurement_unit = "µg/mL"
readout_value = 80

[[record]]
molecule = "COc1ccc(OCc2ccc3c(c2C)CCN(C2CCOCC2)C3)c(-c2cccc(-n3ncc(C(=O)O)c3OC)n2)c1"
measurement_unit = "µg/mL"
readout_value = 81

[[record]]
molecule = "CCOc1c(C(=O)O)cnn1-c1cccc(-c2cccc(C)c2OCc2ccc3c(c2C)CCN(C2CCOCC2)CC3)n1"
measurement_unit = "µg/mL"
readout_value = 83

[[record]]
molecule = "COc1c(C(=O)O)cnn1-c1cccc(-c2cccc(C)c2OCc2ccc3c(c2)CCN(C2COC2)C3)n1"
measurement_unit = "µg/mL"
readout_value = 82

[[record]]
molecule = "CCOc1c(C(=O)O)cnn1-c1cccc(-c2cccc(C)c2OCc2cc(C)c3c(c2)CCN([C@H]2CCCOC2)C3)n1"
measurement_unit = "µg/mL"
readout_value = 83

[[record]]
molecule = "COCC(C)N1CCc2cc(COc3c(C)cccc3-c3cccc(-n4ncc(C(=O)O)c4OC)n3)cc(C)c2C1 (stereo not drawn)"
measurement_unit = "µg/mL"
readout_value = 99

[[record]]
molecule = "CCOc1c(C(=O)O)cnn1-c1cccc(-c2cccc(C)c2OCc2cc(C)c3c(c2)CCN(CC2COCCO2)C3)n1 (stereo not drawn)"
measurement_unit = "µg/mL"
readout_value = 82

